Source listed as PubChem BioAssay (Tox21).

target: Cytochrome P450 1A2 (Homo sapiens); assay: Cytochrome P450 Family 1 Subfamily A Member 2 (CYP1A2) small molecule antagonists: luciferase reporter qHTS assay (AID 1671199); details: P450-Glo CYP1A2 enzyme, luciferin luminescence, 1 h; series mostly up to 115 µM; further: nearly all actives have a fitted effect of over 50% in size
Results filed as inconclusive are left out. Active and inactive are the calls of the source. The call rests on the fitted dose curve; in most records, active means well fitted inhibition curve with a large enough effect in the repeat runs; inconclusive means weak or mixed curves; inactive means no such curve, though single readings can be large or run the other way.
Your response should consist of one outcome taken from active, inactive

1) N[C@@H](Cc1ccc(Oc2cc(I)c(O)c(I)c2)c(I)c1)C(=O)O : inactive
2) CCCOc1nn(C(=O)NS(=O)(=O)c2ccccc2C(=O)OC)c(=O)n1C : inactive
3) ClCC1CO1 (configuration not stated) : inactive
4) CCC1(CC)C(=O)C=CNC1=O : active

Recorded test outcome, item CC(C)[C@]12CC(=O)[C@H](C)[C@H]1C2
inactive

Recorded test outcome, item CCNP(=S)(OC)O/C(C)=C/C(=O)OC(C)C (configuration not stated)
active

Recorded test outcome, item C[C@]12C=CC(=O)C=C1CC[C@@H]1[C@@H]2CC[C@@]2(C)[C@H]1CC[C@]2(C)O
inactive

Recorded test outcome, item NCC1(CC(=O)O)CCCCC1
inactive

Recorded test outcome, item NC(=O)CS(=O)C(c1ccccc1)c1ccccc1 (configuration not stated)
inactive

Recorded test outcome, item CCC1(c2cccc(O)c2)CCCCN(C)C1 (configuration not stated)
inactive

Recorded test outcome, item CC(=O)OCC1=C(C(=O)O)N2C(=O)[C@@H](N)[C@H]2SC1
active

Recorded test outcome, item CCC1(c2ccccc2)CCC(=O)NC1=O (configuration not stated)
inactive

* * *

molecular target: Androgen receptor (Homo sapiens) (UniProt P10275); assay: qHTS assay to identify small molecule antagonists of the androgen receptor (AR) signaling pathway using the MDA cell line in the presence of 0.5 nM R1881 (AID 1259243); details: MDA-kb2 MMTV-luciferase, R1881 0.5 nM, 16 h; series mostly up to 92.4 µM; further: on the % scale 0 is the no-effect control and ±100 the full control effect; nearly all actives have a fitted effect of over 50% in size
Sequence (P10275 whole entry, looked up): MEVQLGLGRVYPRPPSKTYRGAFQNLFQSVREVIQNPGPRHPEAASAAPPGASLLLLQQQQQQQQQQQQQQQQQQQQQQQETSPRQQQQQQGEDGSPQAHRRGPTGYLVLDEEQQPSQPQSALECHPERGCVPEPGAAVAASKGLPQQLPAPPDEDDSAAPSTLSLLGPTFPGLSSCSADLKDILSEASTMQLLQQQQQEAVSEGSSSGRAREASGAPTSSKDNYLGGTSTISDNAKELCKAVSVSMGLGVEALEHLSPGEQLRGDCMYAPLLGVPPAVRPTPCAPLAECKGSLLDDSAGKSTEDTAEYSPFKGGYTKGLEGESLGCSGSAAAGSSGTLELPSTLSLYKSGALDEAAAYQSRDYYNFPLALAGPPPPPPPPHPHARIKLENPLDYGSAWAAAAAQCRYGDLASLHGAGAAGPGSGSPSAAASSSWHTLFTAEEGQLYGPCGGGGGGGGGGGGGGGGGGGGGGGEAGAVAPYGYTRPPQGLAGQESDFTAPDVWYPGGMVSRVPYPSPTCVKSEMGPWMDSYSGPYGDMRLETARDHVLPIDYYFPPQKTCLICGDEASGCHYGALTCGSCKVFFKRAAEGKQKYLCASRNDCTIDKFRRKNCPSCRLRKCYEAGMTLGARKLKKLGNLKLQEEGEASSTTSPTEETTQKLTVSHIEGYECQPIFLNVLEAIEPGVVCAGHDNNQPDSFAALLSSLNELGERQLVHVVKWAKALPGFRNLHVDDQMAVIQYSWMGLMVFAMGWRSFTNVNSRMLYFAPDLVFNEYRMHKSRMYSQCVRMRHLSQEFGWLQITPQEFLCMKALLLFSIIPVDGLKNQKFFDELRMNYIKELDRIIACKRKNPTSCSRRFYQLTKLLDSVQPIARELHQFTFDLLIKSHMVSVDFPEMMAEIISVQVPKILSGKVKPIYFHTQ
Records with an inconclusive call do not appear. Activity calls are given as the source filed them. The call rests on the fitted dose curve; in most records, active means well fitted inhibition curve with a large enough effect in the repeat runs; inconclusive means weak or mixed curves; inactive means no such curve, though single readings can be large or run the other way.
Your response should consist of one outcome taken from active, inactive

Examples from the recorded data:
1. COc1cccc([C@@]2(O)CCCC[C@@H]2CN(C)C)c1 : inactive
2. CCC1(c2ccccc2)C(=O)N(COC)C(=O)N(COC)C1=O : inactive
3. CNC(=O)Oc1ccccc1C(C)C : inactive
4. O=S1(=O)OCCO1 : inactive

Recorded test outcome, item Clc1ccc(C(Cl)(Cl)Cl)cn1
inactive

Recorded test outcome, item CCN[C@@H](C)Cc1ccccc1
inactive

Recorded test outcome, item N[C@@H]1C[C@H]1c1ccccc1
inactive

Recorded test outcome, item CN(C)C(=O)Oc1cc(OC(=O)N(C)C)cc(C(O)CNC(C)(C)C)c1 (stereo not drawn)
inactive

Recorded test outcome, item CC(C)N(Cc1ccccc1)C(=O)C(C)(C)C
inactive

Recorded test outcome, item Cc1ccc(S(=O)(=O)N[C@@H](CCCCN)C(=O)CCl)cc1
inactive

Recorded test outcome, item CCCOC(=O)c1cncn1C(C)c1ccccc1 (stereo not drawn)
inactive

Recorded test outcome, item O=c1[nH]c2ccccc2n1C1CCNCC1
inactive

Recorded test outcome, item OP(O)c1ccccc1
inactive

* * *

assay: A CellTox Green Cytotoxicity Assay to monitor cytotoxicity in HEK293 cells - 0 hour (AID 1224869); settings: CellTox Green fluorescence; series mostly up to 76.8 µM; further: on the % scale 0 is the no-effect control and ±100 the full control effect; nearly all actives have a fitted effect of over 50% in size
Active and inactive are the calls of the source. Calls follow the shape of the dose curve; as a rule, active = well fitted activation curve with a large enough effect in the repeat runs; inconclusive = weak or mixed curves; inactive = flat fitted curve, though single readings scatter.
outcome measure: cytotoxicity

Examples with their reported cytotoxicity follow.
1. CCCCCCCCBr : inactive
2. CCN(CCO)CCn1c(Cc2ccccc2)nc2c1c(=O)n(C)c(=O)n2C : inactive
3. C/C=C/CC#N : inactive
4. Cc1ccc(-c2nc3ccc(C)cn3c2CC(=O)N(C)C)cc1 : inactive
5. CCOC(=O)N(C)N=O : inactive
6. Cn1c(CCCC(=O)O)nc2cc(N(CCCl)CCCl)ccc21 : inactive

We next turn to a different compound, shown below.
Look up cytotoxicity: C=CCC1(C(C)CC)C(=O)NC(=O)NC1=O (stereo not drawn)
inactive

* * *

target: Luciferin 4-monooxygenase (Photinus pyralis) (UniProt P08659); assay: qHTS assay to identify small molecule inhibitors of firefly luciferase (AID 1224835); further: on the % scale 0 is the no-effect control and ±100 the full control effect; nearly all actives have a fitted effect of over 25% in size; settings: purified P. pyralis luciferase, luminescence inhibition; series mostly up to 115 µM
Sequence (P08659 whole entry, looked up): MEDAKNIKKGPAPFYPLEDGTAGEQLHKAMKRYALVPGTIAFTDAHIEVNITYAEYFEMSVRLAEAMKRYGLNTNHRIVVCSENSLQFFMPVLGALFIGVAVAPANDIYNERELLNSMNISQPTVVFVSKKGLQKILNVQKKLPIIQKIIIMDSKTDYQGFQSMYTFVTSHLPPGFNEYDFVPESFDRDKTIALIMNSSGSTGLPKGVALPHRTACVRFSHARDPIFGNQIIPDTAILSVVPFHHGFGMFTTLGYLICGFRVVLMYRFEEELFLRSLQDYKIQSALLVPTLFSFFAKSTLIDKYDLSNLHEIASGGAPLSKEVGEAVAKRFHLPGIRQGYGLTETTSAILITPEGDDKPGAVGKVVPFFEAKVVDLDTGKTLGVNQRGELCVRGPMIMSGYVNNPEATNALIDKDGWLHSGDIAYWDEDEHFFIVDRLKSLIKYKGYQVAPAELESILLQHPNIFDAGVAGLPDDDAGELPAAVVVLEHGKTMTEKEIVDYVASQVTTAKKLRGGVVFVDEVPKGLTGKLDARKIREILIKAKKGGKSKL
Inconclusive results are not listed. Activity calls are given as the source filed them. Calls come from the whole dose curve; as a rule, active = well fitted inhibition curve with a large enough effect in the repeat runs; inconclusive = weak or mixed curves; inactive = flat fitted curve, though single readings scatter.
Your response should consist of one outcome taken from yes (active), no (inactive)

Examples from the recorded data:
1. COC[C@@H](NC(C)=O)C(=O)NCc1ccccc1 : no
2. CC(C)(C)C(=O)C(Cl)Cl : no

Recorded test outcome, item BrCC1CO1 (stereo not drawn)
no

Recorded test outcome, item C[C@@H](N)[C@@H](O)c1ccccc1
no

Recorded test outcome, item CC1=C2[C@H]3OC(=O)[C@@H](C)[C@@H]3CC[C@@]2(C)C=CC1=O
no

* * *

experiment: Caspase-3/7 induction in CHO-K1 cells by small molecules, qHTS cell viability counter screen (AID 1346979); settings: CellTiter-Fluor fluorescence, 17 h; series mostly up to 92.4 µM; further: on the % scale 0 is the no-effect control and ±100 the full control effect; nearly all actives have a fitted effect of over 35% in size
Records with an inconclusive call do not appear. Calls of active or inactive are those of the source. Calls follow the shape of the dose curve; as a rule, active = well fitted cell-killing curve with a large enough effect in the repeat runs; inconclusive = weak or mixed curves, or effect the other way; inactive = no such curve, though single readings can be large or run the other way.
outcome measure: activity change, negative = cytotoxicity

1. O=[N+]([O-])c1cccc(CCl)c1 : inactive
2. CCOP(=O)(CN(CCO)CCO)OCC : inactive
3. O=C(O)C(Br)(Br)Br : inactive
4. CS(=O)(=O)c1ccc(C(=O)C2C(=O)CCCC2=O)c(Cl)c1COCC(F)(F)F : inactive
5. C=CCCC#N : inactive

Look up activity change, negative = cytotoxicity: CCCCCCC(=O)CCCCCC/C=C/C[C@@H](O)[C@H](O)[C@@](N)(CO)C(=O)O
4.97% [at 19 µM] (inactive)

Look up activity change, negative = cytotoxicity: CCN(CCO)CCO
inactive

Look up activity change, negative = cytotoxicity: CCCC(C)(COC(N)=O)COC(N)=O
inactive

* * *

experiment: A CellTox Green Cytotoxicity Assay to monitor cytotoxicity in HepG2 cells - 40 hour (AID 1224879); conditions: CellTox Green fluorescence; series mostly up to 76.8 µM; further: on the % scale 0 is the no-effect control and ±100 the full control effect; nearly all actives have a fitted effect of over 40% in size
Results filed as inconclusive are left out. Active and inactive are the calls of the source. The call rests on the fitted dose curve; in most records, active means well fitted activation curve with a large enough effect in the repeat runs; inconclusive means weak or mixed curves; inactive means flat fitted curve, though single readings scatter.
Your response should consist of one outcome taken from active, inactive

1. NNC(N)=O : inactive
2. OCC(Cl)CCl (configuration not stated) : inactive

Recorded test outcome, item ClC(Cl)(Cl)Cl
inactive

Recorded test outcome, item CCCC[N+](=O)[O-]
inactive

Recorded test outcome, item O=C(Cl)C(Cl)(Cl)Cl
inactive

Recorded test outcome, item COC(=O)c1ccc(CBr)cc1
inactive

Recorded test outcome, item O=C(NC(O)C(Cl)(Cl)Cl)NC(O)C(Cl)(Cl)Cl (configuration not stated)
inactive

Recorded test outcome, item CC(C)(N)Cc1ccc(Cl)cc1
inactive

Recorded test outcome, item N[C@@H](Cc1ccc(Oc2cc(I)c(O)c(I)c2)c(I)c1)C(=O)O
inactive

Recorded test outcome, item CN(CCO)CCO
inactive

Recorded test outcome, item CCN(CCO)CCO
inactive

Recorded test outcome, item Cl/C=C/CCl
inactive

Recorded test outcome, item CCN[C@@H](C)Cc1cccc(C(F)(F)F)c1
inactive

Recorded test outcome, item CCCC(C)(COC(N)=O)COC(N)=O
inactive

* * *

assay: qHTS RealTime-Glo MT Cell Viability Assay in HepG2 cells - 16 hour (AID 1224885); conditions: RealTime-Glo luminescence; series mostly up to 76.8 µM; further: on the % scale 0 is the no-effect control and ±100 the full control effect; nearly all actives have a fitted effect of over 50% in size
Inconclusive results are not listed. Active and inactive are the calls of the source. Calls come from the whole dose curve; as a rule, active = well fitted cell-killing curve with a large enough effect in the repeat runs; inconclusive = weak or mixed curves; inactive = flat fitted curve, though single readings scatter.
outcome measure: activity change, negative = cytotoxic

Examples with their reported activity change, negative = cytotoxic follow.
1) CC[C@H](N)c1ccccc1 : inactive
2) O=C(O)CBr : inactive
3) CC(=O)OCC1=C(C(=O)O)N2C(=O)[C@@H](N)[C@H]2SC1 : 0.0339% [at 15.8 µM] (inactive)
4) CCNP(=S)(OC)O/C(C)=C/C(=O)OC(C)C (stereo not drawn) : inactive

Look up activity change, negative = cytotoxic: CC(O)CCl (stereo not drawn)
inactive

Look up activity change, negative = cytotoxic: C[C@H](N)C(=O)c1ccccc1
inactive

Look up activity change, negative = cytotoxic: CN(C)CCN(C)C
inactive

Look up activity change, negative = cytotoxic: CCN[C@H](C)Cc1cccc(C(F)(F)F)c1
inactive

* * *

assay: qHTS assay to identify small molecule antagonists of the peroxisome proliferator-activated receptor delta (PPARd) signaling pathway - cell viability counter screen (AID 743213); details: PPARd-bla HEK293H viability, CellTiter-Glo luminescence, 17 h; series mostly up to 62 µM
Records with an inconclusive call do not appear. Active and inactive are the calls of the source. Calls follow the shape of the dose curve; as a rule, active = well fitted cell-killing curve with a large enough effect in the repeat runs; inconclusive = weak or mixed curves; inactive = no such curve, though single readings can be large or run the other way.
outcome measure: viability change, negative = cytotoxic

1) C=CCN1CC[C@]23CCCC[C@H]2[C@H]1Cc1ccc(O)cc13 : inactive
2) Clc1cc2c(cc1Cl)Oc1cc(Cl)c(Cl)cc1O2 : -3.41% [at 0.278 µM] (inactive)
3) CCC(C)(C#N)N=NC(C)(C#N)CC (stereo unspecified) : inactive
4) CC[C@@H](CO)NC(=O)[C@@H]1C=C2c3cccc4c3c(cn4C)C[C@H]2N(C)C1 : inactive
5) CCC(CC)(CNC(=O)CCCO)c1cccc(OC)c1 : inactive

We next turn to a different compound, shown below.
Look up viability change, negative = cytotoxic: Cl/C=C/CCl
inactive
